# Assayed target: Mannose-6-phosphate isomerase (Homo sapiens) (UniProt P34949)
# Sequence (P34949 whole entry, looked up): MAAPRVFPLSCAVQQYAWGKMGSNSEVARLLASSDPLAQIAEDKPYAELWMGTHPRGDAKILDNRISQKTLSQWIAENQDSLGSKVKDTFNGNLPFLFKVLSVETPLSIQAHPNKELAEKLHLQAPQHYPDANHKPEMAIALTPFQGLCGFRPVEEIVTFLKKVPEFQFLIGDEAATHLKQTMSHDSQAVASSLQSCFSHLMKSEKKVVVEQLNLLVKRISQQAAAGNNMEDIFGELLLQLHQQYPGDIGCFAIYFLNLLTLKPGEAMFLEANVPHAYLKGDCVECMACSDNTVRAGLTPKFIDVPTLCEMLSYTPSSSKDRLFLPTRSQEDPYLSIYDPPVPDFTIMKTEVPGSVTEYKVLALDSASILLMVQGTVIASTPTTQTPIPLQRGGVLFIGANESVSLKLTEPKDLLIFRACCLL
# Assay name: MPI inhibition at elevated mannose 6-phosphate – biochemical, fluorescence intensity, high mannose 6-phosphate, primary screen (AID 1220)
# Cond: recombinant PMI enzyme, coupled fluorescence intensity; at 20 µM
Out of some 190,000 compounds screened, about 1,300 (0.68%) were called active. No stated cut-off is given here; in the data, active means inhibition above about 50%; inactive means the rest. This excerpt belongs to a sample that is enriched for actives.
Classes used: Yes = active, No = inactive

>  <Compound>
COc1ccc(NC(=S)NCCN2CCOCC2)cc1

>  <Class assignment>
No

$$$$
>  <Compound>
CCN(CC)S(=O)(=O)c1cccc(NC(=O)COC(=O)c2cc(=O)c3ccccc3o2)c1

>  <Class assignment>
No

$$$$
>  <Compound>
Cc1ccc(N2C(=O)NC(NC(=O)C(C)(C)C)(C(F)(F)F)C2=O)cc1 (configuration not stated)

>  <Class assignment>
No

$$$$
>  <Compound>
CC1(C)CC(CC(=O)O)(c2ccc(F)cc2)CCO1 (configuration not stated)

>  <Class assignment>
No

$$$$
>  <Compound>
CCOCCCNS(=O)(=O)c1ccc(NC(=O)C2CC(=O)N(c3ccc(C)cc3)C2)cc1 (configuration not stated)

>  <Class assignment>
No

$$$$
>  <Compound>
CCc1ccc(N2CC(C(=O)N/N=C/c3cc([N+](=O)[O-])ccc3O)CC2=O)cc1 (configuration not stated)

>  <Class assignment>
No

$$$$
>  <Compound>
COc1ccc(CNC(=S)Nc2ccc(OC)cc2)cc1

>  <Class assignment>
No

$$$$
>  <Compound>
COc1ccc(N2CCC(CNC(=S)Nc3cccc(OC)c3)C2)cc1 (configuration not stated)

>  <Class assignment>
No

$$$$
>  <Compound>
CN(C)C=Nc1ncc2c3ccccc3n(CCN(C)C)c2c1C#N

>  <Class assignment>
No

$$$$
>  <Compound>
O=C(CCc1c[nH]c2ccccc12)NCc1ccco1

>  <Class assignment>
No

$$$$
>  <Compound>
COc1ccc([N+](=O)[O-])cc1NC(=O)CC(C)c1ccccc1 (configuration not stated)

>  <Class assignment>
No

$$$$
>  <Compound>
COc1ccc(OCC(=O)NC(CC(=O)O)c2ccc(OC)c(OC)c2)cc1 (configuration not stated)

>  <Class assignment>
No

$$$$
>  <Compound>
O=[N+]([O-])c1cc(Cc2ccccc2)cc(C=Nc2ccc(N3CCOCC3)cc2)c1O

>  <Class assignment>
No

$$$$
>  <Compound>
CCOc1ccccc1OCCNC1CCCC1

>  <Class assignment>
No

$$$$
>  <Compound>
CSc1ccccc1NC(=O)CN(C)CC(=O)Nc1ccccc1F

>  <Class assignment>
No

$$$$
>  <Compound>
CC(C)CCC(C)N=Cc1c(O)n(Cc2ccccc2)c(=O)c2ccccc12 (configuration not stated)

>  <Class assignment>
No

$$$$
>  <Compound>
C=CCn1c(=NC(=O)c2ccc(S(=O)(=O)N3CCCc4ccccc43)cc2)sc2cc(S(N)(=O)=O)ccc21

>  <Class assignment>
Yes

$$$$
>  <Compound>
Cc1cc(=O)n(CCCO)c(O)c1C#N

>  <Class assignment>
No

$$$$
>  <Compound>
Cc1nc(NCC2CCCO2)c2nnn(Cc3ccccc3)c2n1 (configuration not stated)

>  <Class assignment>
No

$$$$
>  <Compound>
Cc1nc(NCC2CC2)c2nnn(Cc3ccccc3)c2n1

>  <Class assignment>
Yes

$$$$
>  <Compound>
COc1ccc(S(=O)(=O)N2CCc3ccccc32)cc1NC(C)=O

>  <Class assignment>
No

$$$$
>  <Compound>
CCN(CC)CCCNC(=O)c1ccc2c(SCC(=O)O)c3c(nc2c1)CCC3

>  <Class assignment>
No

$$$$
>  <Compound>
Cc1nn2cnc3sc4c(c3c2nc1=O)CCCC4

>  <Class assignment>
No

$$$$
>  <Compound>
COc1ccc(CCN(C)CCCN2CC(c3ccccc3)CC2=O)cc1OC (configuration not stated)

>  <Class assignment>
No

$$$$
>  <Compound>
Cc1ccc2cc(S(=O)(=O)NCCCN3CCOCC3)ccc2c1

>  <Class assignment>
No

$$$$
>  <Compound>
COc1ccc(N=Cc2cc(Cc3ccccc3Cl)cc([N+](=O)[O-])c2O)cc1OC

>  <Class assignment>
Yes

$$$$
>  <Compound>
Cc1c(CN2CCCCC2)c(O)n(CCCO)c(=O)c1C#N

>  <Class assignment>
Yes

$$$$
>  <Compound>
O=C(O)CC1SC(=O)N(Cc2ccccc2)C1=O (configuration not stated)

>  <Class assignment>
No

$$$$
>  <Compound>
CCOC(=O)CCC(NC(=O)CCCCCCCCC(=O)NC(CCC(=O)OCC)C(=O)OCC)C(=O)OCC (configuration not stated)

>  <Class assignment>
No

$$$$
>  <Compound>
CCc1ccc(C(=O)CN2C(=O)C(C)N(c3ccc(C)cc3)C2=O)cc1 (configuration not stated)

>  <Class assignment>
No

$$$$
>  <Compound>
Cc1n[nH]c(C)c1Sc1ccccc1N=Cc1cc(Cl)cc([N+](=O)[O-])c1O

>  <Class assignment>
No

$$$$
>  <Compound>
Cc1ccc(N=Cc2c(O)[nH]c3ccccc23)c([N+](=O)[O-])c1

>  <Class assignment>
No

$$$$
>  <Compound>
COc1ccc(C(=O)C[n+]2cn(C(F)F)c3ccccc32)c(F)c1

>  <Class assignment>
No

$$$$
>  <Compound>
O=C(Cc1c[nH]c2ccccc12)NCc1ccco1

>  <Class assignment>
No

$$$$
>  <Compound>
CCn1c(CN2CCN(C(=O)c3ccco3)CC2)nc2c1c(=O)n(C)c(=O)n2C

>  <Class assignment>
No

$$$$
>  <Compound>
Cc1ccc(S(=O)(=O)N(C)C)cc1NC(=O)COC(=O)c1n[nH]c(=O)c2ccccc12

>  <Class assignment>
No

$$$$
>  <Compound>
COc1ccc(CNC(=S)Nc2cccc(C)c2)cc1

>  <Class assignment>
No

$$$$
